molecular target: T1, biotin-labeled human CD137 fused to human IgG1 Fc fragment (human CD137-Fc) (human, biotin-labeled); assay: competitive bead ELISA, biotin-human CD137-Fc on beads; free CD3e 62.5 pmol against free Fc 62.5 pmol
T1 construct: also called biotin-human CD137-Fc
endpoint name: Signal decrease
Write the numeric value and follow it with the unit.

-- ask Would you kindly share the measured Signal decrease for DADU01_3#018 (antibody, human IgG1, V domains shown, also called dBBDu123) VH: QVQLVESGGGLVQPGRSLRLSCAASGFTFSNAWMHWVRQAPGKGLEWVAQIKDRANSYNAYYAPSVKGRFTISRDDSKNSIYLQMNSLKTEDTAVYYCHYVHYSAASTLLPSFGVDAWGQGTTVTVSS VL: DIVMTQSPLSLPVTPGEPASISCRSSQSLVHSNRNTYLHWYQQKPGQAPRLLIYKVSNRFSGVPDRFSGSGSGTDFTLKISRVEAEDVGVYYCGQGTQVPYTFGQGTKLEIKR ?
-- reply 92.3%

-- ask Would you kindly share the measured Signal decrease for DADU01_3#002 (antibody, human IgG1, V domains shown, also called dBBDu124) VH: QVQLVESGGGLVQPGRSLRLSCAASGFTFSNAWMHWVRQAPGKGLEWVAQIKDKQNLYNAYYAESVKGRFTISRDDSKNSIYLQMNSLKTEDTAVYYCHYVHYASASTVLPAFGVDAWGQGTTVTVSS VL: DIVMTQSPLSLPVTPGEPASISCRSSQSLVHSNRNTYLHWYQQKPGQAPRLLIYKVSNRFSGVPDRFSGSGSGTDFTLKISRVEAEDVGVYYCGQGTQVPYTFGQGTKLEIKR ?
-- reply 93.6%

-- ask Would you kindly share the measured Signal decrease for DXDU01_3#019 (antibody, human IgG1, V domains shown, also called dBBDu125) VH: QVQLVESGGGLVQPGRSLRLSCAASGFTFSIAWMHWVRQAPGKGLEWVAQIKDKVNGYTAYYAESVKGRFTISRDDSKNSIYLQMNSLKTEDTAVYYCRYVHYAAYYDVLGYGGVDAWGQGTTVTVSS VL: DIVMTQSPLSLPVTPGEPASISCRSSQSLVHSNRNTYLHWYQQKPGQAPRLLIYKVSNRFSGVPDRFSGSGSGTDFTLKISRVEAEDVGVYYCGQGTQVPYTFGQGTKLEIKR ?
-- reply 92.5%
